System: OVCAR-3 ovarian
Assay: NCI tumour cell line growth inhibition, 48 h; in the data active = GI50 below about 0.43 µM; inactive = the rest
Outcome codes: yes (1) (active), no (0) (inactive)

>  <compound>
O=S(=O)(Nc1ccccc1)c1ccc(C2CC3(Cl)C(Cl)=C(Cl)C2(Cl)C3(Cl)Cl)cc1 (stereo unspecified)

>  <cat>
no (0)

$$$$
>  <compound>
O=C1NC(=NCc2cccs2)O/C1=C\c1ccc2ncccc2c1

>  <cat>
no (0)

$$$$
>  <compound>
COc1cc2c3c(n(CCCN)c(=O)c2cc1OC)-c1ccc(N)cc1C3=O

>  <cat>
no (0)

$$$$
>  <compound>
FC(F)(F)c1cccc(CNC2CCN(CCc3ccccc3)CC2)c1

>  <cat>
no (0)

$$$$
>  <compound>
N#C[Se]CCN1C(=O)c2ccccc2C1=O

>  <cat>
no (0)

$$$$
>  <compound>
OCc1ccc(N2CCc3ccc(F)cc3C2)cc1Cl

>  <cat>
yes (1)

$$$$
